Provide the recorded pKi for the entries that follow.
Biological target: Adrenergic receptor alpha-2 (Rattus norvegicus, UniProt P22086+P19328+P22909)
Sequence (P22086 whole entry): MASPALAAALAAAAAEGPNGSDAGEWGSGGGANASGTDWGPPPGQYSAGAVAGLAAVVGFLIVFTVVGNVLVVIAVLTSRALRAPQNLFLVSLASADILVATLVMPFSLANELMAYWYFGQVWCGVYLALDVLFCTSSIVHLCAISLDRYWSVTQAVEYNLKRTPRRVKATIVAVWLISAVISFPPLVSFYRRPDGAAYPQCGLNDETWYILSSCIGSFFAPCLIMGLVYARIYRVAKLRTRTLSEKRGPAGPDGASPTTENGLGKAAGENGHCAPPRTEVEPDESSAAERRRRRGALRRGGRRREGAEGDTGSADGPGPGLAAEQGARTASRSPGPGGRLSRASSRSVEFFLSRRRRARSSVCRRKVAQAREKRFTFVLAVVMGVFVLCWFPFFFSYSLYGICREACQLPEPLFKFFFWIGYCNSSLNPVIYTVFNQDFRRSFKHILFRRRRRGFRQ
Sequence (P19328 whole entry): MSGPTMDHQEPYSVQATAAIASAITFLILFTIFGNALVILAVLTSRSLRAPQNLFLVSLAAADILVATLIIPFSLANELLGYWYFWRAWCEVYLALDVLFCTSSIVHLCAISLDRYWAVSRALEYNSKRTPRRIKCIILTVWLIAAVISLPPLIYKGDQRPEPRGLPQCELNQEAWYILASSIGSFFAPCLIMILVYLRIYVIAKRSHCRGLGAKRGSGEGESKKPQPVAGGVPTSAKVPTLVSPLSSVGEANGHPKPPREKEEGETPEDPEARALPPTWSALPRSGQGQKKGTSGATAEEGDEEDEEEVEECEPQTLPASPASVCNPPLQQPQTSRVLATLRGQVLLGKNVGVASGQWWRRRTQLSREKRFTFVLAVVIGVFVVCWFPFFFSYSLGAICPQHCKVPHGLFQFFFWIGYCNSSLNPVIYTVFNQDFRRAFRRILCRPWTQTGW
Sequence (P22909 whole entry): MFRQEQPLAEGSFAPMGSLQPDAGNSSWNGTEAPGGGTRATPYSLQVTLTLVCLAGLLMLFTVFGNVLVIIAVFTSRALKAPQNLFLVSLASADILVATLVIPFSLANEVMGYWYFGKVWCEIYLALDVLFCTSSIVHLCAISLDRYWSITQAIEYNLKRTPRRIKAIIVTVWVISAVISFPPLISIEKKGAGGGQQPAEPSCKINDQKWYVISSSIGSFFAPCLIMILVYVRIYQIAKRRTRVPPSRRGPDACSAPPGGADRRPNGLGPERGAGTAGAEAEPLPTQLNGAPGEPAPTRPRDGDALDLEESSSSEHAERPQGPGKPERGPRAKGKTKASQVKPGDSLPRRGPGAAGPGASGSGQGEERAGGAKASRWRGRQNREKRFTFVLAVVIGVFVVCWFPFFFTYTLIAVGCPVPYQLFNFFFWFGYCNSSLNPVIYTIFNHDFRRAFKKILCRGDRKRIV
Assay: Displacement of [3H]clonidine from rat cerebral cortex alpha-2 adrenergic receptor by liquid scintillation counting analysis
Format: tissue-based
No unit in the answer, only the number.

Please give the measured pKi for this compound: `Cl.O=C1CCCN1CCN1CCN(C(c2ccc(F)cc2)c2ccc(F)cc2)CC1`
6.01

Please give the measured pKi for this compound: `Cc1ccccc1N1CCN(CCN2CCCC2=O)CC1.Cl`
5.92

Please give the measured pKi for this compound: `Cl.O=C1CCCN1CCCCN1CCN(C(c2ccc(F)cc2)c2ccc(F)cc2)CC1`
5.92

Please give the measured pKi for this compound: `Cl.O=C1CCCN1CCCCN1CCN(c2ccccc2Cl)CC1`
6.01

Please give the measured pKi for this compound: `Cc1ccccc1N1CCN(CCCCN2CCCC2=O)CC1.Cl`
6.05

Source listed as ChEMBL document CHEMBL3400024.
